- Tested on: NCI-H522 lung
- Method: NCI tumour cell line growth inhibition, 48 h; in the data active = GI50 below about 0.43 µM; inactive = the rest
Outcome field: choose from active, inactive

INPUT: Could you check what this test reported for `CCOC(=O)c1cc(C(=O)c2cc(OC)c(OC)c(OC)c2)n2nc(C)ccc12` ?
OUTPUT: active

INPUT: Could you check what this test reported for `COc1cc(-c2cc(-c3nc4ccc(F)cc4[nH]3)[nH]n2)cc(OC)c1OC` ?
OUTPUT: inactive

INPUT: Could you check what this test reported for `O=C1c2ccccc2S(=O)(=O)N1CSC(=S)N1CCOCC1` ?
OUTPUT: inactive

INPUT: Could you check what this test reported for `C#CCNCCCN1C(=O)c2ccc3c4c(ccc(c24)C1=O)C(=O)N(CCCNCC#C)C3=O` ?
OUTPUT: active

INPUT: Could you check what this test reported for COC(=O)C(C)NP(=O)(OCc1ccc(Cn2cnc3c(N)ncnc32)cc1)Oc1ccccc1 (stereo not given) ?
OUTPUT: inactive

INPUT: Could you check what this test reported for `COc1ccc(/C=C(/C(=O)N2CCCCC2)c2cc(OC)c(OC)c(OC)c2)cc1` ?
OUTPUT: inactive

INPUT: Could you check what this test reported for COC(=O)c1ccc(C2SC(C)C(=O)N2NC(=O)C(O)c2ccccc2)cc1 (stereo not given) ?
OUTPUT: inactive

INPUT: Could you check what this test reported for `O=Cc1cn(Cc2ccccc2)c2ccccc12` ?
OUTPUT: inactive

INPUT: Could you check what this test reported for `O=c1cc(/C=C/c2ccc(O)c(O)c2)cc(/C=C/c2ccc(O)c(O)c2)o1` ?
OUTPUT: inactive

INPUT: Could you check what this test reported for `O=c1[nH]nc(-c2nn(-c3ccc(Cl)cc3)cc2O)o1` ?
OUTPUT: inactive

====

- Test system: SNB-78 CNS
- Method: NCI tumour cell line growth inhibition, 48 h
Experimental Endpoint: TGI

TGI reading for `CCCCC1(C2c3ccccc3Oc3ccccc32)C(=O)N(c2ccccc2)N(c2ccccc2)C1=O` : > 88.5 µM

TGI reading for `COc1ccc(/C=C2\C(=O)NC(=O)c3ccccc32)cc1OC` : > 66.2 µM

TGI reading for O=C(Nc1ccccc1SC(/C=C/NNC1=NC(c2ccccc2)C(c2ccccc2)=NN1)c1ccccc1)c1ccc(Cl)cc1Cl (centres undefined) : > 100 µM

TGI reading for `CN(C)[C@@H]1C(=O)C(C(=O)NCN2CCN(C(=N)N=C(N)N)CC2)=C(O)[C@@]2(O)C(=O)C3=C(O)c4c(O)cccc4[C@@](C)(O)[C@H]3C[C@@H]12` : 0.471 µM

====

- Tested on: SNB-19 CNS
- Method: NCI tumour cell line growth inhibition, 48 h
Please go through the items and note down their TGI.

TGI reading for O=C(O)C(CCc1ccccc1)N1C(=O)c2ccccc2C1=O (stereo not given) : > 100 µM

TGI reading for `CO/C(=N\N=C\c1ccccc1F)c1ccncc1` : > 10 µM

TGI reading for `N/N=c1\c2ccccc2c2ccc3c4ccccc4/c(=N\N)c3c12` : > 100 µM

TGI reading for CCC(C)CN=C(N)c1ccc(N2CCN(c3ccc(C(N)=NCC(C)CC)cc3)CC2)cc1 (stereo not given) : 69.2 µM

TGI reading for COc1cc(C(=O)O[C@H]2CCC3CCC2N3C)cc(OC)c1OC (stereo not given in full) : > 100 µM

TGI reading for `COc1ccc(CNc2cnc3ccc(N)cc3n2)cc1OC` : > 100 µM

TGI reading for COC(=O)C1(CCC(=O)N(C)c2ccccc2)NNC2C(=O)N(c3ccccc3)C(=O)C21 (stereo not given) : > 10 µM

TGI reading for `CC(=O)/C(=C\c1c(-c2ccccc2)[nH]c2ccccc12)S(C)(=O)=O` : > 58.7 µM

TGI reading for `COC(=O)Nc1nc2ccc(NS(=O)(=O)c3ccc(Cl)cc3)cc2[nH]1` : 29.6 µM

TGI reading for `Cc1cc(O)c(C=NC(=S)c2ccncc2)c(=O)o1` : > 100 µM

TGI reading for CC(C)C(NCc1c2ccccc2[n+]([O-])c2ccccc12)C(=O)O (stereo not given) : > 100 µM

TGI reading for `CCN(CC)C(=S)SS(=O)(=O)c1ccc(N)cc1` : > 100 µM

TGI reading for COc1ccc(C2NC(=O)c3cc4c(cc3N2)OCO4)cc1 (stereo not given) : > 100 µM

TGI reading for `CC(C)OP(=O)(OC(C)C)/C(F)=N/Nc1ccc([N+](=O)[O-])cc1` : > 100 µM

TGI reading for O=C1OC(Cl)C(N=P(c2ccccc2)(c2ccccc2)c2ccccc2)=C1Cl (stereo not given) : > 100 µM

TGI reading for `NC1(P(=O)(O)O)CCCCC1` : > 100 µM

TGI reading for `O=C1c2ccccc2CC12CCC1(CC2)OCCO1` : > 100 µM

TGI reading for `CN(C)CCNS(=O)(=O)N(C)C` : > 100 µM

TGI reading for O=C(Nc1cc(Cl)c(Cl)cc1Cl)C(=O)C(C(=O)c1ccccc1)C1OC(=O)c2ccccc21 (stereo not given) : > 100 µM

TGI reading for O=C1C=CC2(NN=C(c3ccccc3)N2c2ccccc2)c2cccc(O)c21 (stereo not given) : 10.8 µM

TGI reading for `CCOC(=O)c1ccc(O)cc1` : > 100 µM

TGI reading for `Cc1ccc2c(/C=C/c3ccc(N(C)C)cc3)ccnc2c1C` : > 100 µM

TGI reading for COC(=O)C(/C(=N/NC(N)=O)C(=O)Nc1c(C)cccc1C(C)(C)C)c1nc2ccc(Cl)cc2[nH]c1=O (stereo not given) : > 100 µM

TGI reading for `CCCCCCCCCCCCCCCC(=O)Nc1ccn([C@@H]2O[C@H](CO)[C@@H](O)[C@@H]2C#N)c(=O)n1` : > 100 µM

TGI reading for `O=C1C(c2ccccc2)=[N+]([O-])c2ccc(Cl)cc21` : > 100 µM

TGI reading for `C#CC#CC#CC#CC#CC#CC#CC#CC[C@@H]1OC[C@H](COC(=O)O[C@@H](C(=O)O[C@H]2C[C@@]3(O)[C@@H](OC(=O)c4ccccc4)[C@@H]4[C@]5(OC(C)=O)CO[C@@H]5C[C@H](O)[C@@]4(C)C(=O)[C@H](OC(C)=O)C(=C2C)C3(C)C)[C@@H](NC(=O)c2ccccc2)c2ccccc2)O1` : > 25 µM

TGI reading for `CC(=O)/C(=C\c1ccccc1)C(=O)Nc1ccccc1` : > 100 µM

TGI reading for `COc1ccc2nc3c(n2c1)C(=O)C(=O)c1ccccc1-3` : 4.4 µM

TGI reading for CC(NC(=O)OC(C)(C)C)C(=O)NC1CCCC1 (stereo not given) : > 100 µM

TGI reading for `COc1ccc(/C=C/C(=O)Nc2cc(/C=C\c3cc(OC)c(OC)c(OC)c3)cc(OC)c2OC)cc1OC` : > 100 µM

TGI reading for `COc1cc2nccc(Oc3ccc(NC(=O)C4(C(=O)Nc5ccc(F)cc5)CC4)cc3)c2cc1OC(=O)c1ccc(N)cc1` : > 100 µM

TGI reading for CCOP(=O)(OCC)C(C)(CC)NC1=NC(C(F)(F)F)(C(F)(F)F)NC(=O)N1 (stereo not given) : > 100 µM

TGI reading for Cc1ccc(S(=O)(=O)C2=C([Si](C)(C)C)C3CC2[C@@H]2C4C=CC(CC4)[C@H]32)cc1 (stereo not given in full) : 76.1 µM

TGI reading for `C#CCNCCCN1C(=O)c2ccc3c4c(ccc(c24)C1=O)C(=O)N(CCCNCC#C)C3=O` : 1.45 µM

TGI reading for `O=C(OCc1ccccc1)c1nc2ccccc2n1S(=O)(=O)c1ccccc1` : > 100 µM

====

- Test system: PC-3 prostate
- Method: NCI tumour cell line growth inhibition, 48 h
Experimental Endpoint: TGI

TGI reading for `CCCCc1ccc(Nc2nc3c(ncn3COCCBr)c(=O)[nH]2)cc1` : > 100 µM

TGI reading for COc1ccc(C(O)c2cc3c(N)c(C(=O)Nc4ccccc4)sc3nc2C)cc1 (stereo not drawn) : > 74.3 µM

TGI reading for COc1ccc2c(c1OC)C(=O)OC2C1c2c(c(N)c3c(c2OC)OCO3)CCN1C (stereo not drawn) : > 100 µM

====

Please go through the items and note down their TGI.
- Test system: SW-620 colon
- Method: NCI tumour cell line growth inhibition, 48 h

TGI reading for `CN/N=C(/C=C/c1ccccc1)C(C)C` : > 100 µM

TGI reading for O=C(O)C(CO)N=Cc1nc(-c2ccccc2)oc1O (stereo not given) : > 100 µM

TGI reading for Oc1ccc2c(c1)OCC1(O)Cc3cc(O)c(O)cc3C21 (stereo not given) : 40.5 µM

TGI reading for `O=C([CH-]C(=O)C(F)(F)F)c1ccccc1.O=C([CH-]C(=O)C(F)(F)F)c1ccccc1.[O]=[U+2]=[O]` : > 100 µM

TGI reading for CC(CO)CCC(O)C(C)(O)C1CCC2(O)C3=CC(=O)C4CC(O)C(O)CC4(C)C3CCC12C (stereo not given) : > 100 µM
